Reference source: patent US20240092799A1

Test system: TMD-8 cell p-IF4E
Assay procedure: p-eIF4E Signaling Cellular Assay (CisBio HTRF) in TMD-8 cells
Format: cell-based
Settings: Homo sapiens, TMD8, 40 min, 40 min treatment
pIC50: −log10 of the molar value.
pIC50 for assorted compounds

Q: Returns the measured pIC50 for the input compound. Input: Cc1cc(Nc2cc(NC(=O)C3CCCO3)ncn2)[n+]([O-])c2c1C(=O)NC21CCCCC1 (stereo not shown)
A: 7.00 to 8.00

Q: Recorded pIC50 for CO[C@H]1C[C@@H](Nc2cc(Nc3cc(C)c4c([n+]3[O-])C3(CCCCC3)NC4=O)ncn2)C1 , please?
A: 8.00 to 10.00

Q: Query (compound): Cc1cc(Nc2cc(Nc3ccccc3)ncn2)[n+]([O-])c2c1C(=O)NC21CCCCC1 ; field requested: pIC50
A: 8.00 to 10.00

Q: Fill blank: measured pIC50 of the compound O=C1NC2(CCCCC2)c2nc(Nc3cc(N[C@H]4C[C@@H](O)C4)ncn3)sc21 is ____.
A: 6.00 to 7.00

Q: Form field: reported pIC50 of O=C1NC2(CCCCC2)c2cc(Nc3ccnc(N[C@H]4CCOC4)c3)sc21
A: 7.00 to 8.00

Q: State the recorded pIC50 for this entry: Cc1cccc(Nc2cc(Nc3cc(C)c4c([n+]3[O-])C3(CCCCC3)NC4=O)ncn2)n1
A: 7.00 to 8.00

Q: Return reported pIC50; argument: Cc1cc(Nc2cc(Nc3cc[nH]n3)ncn2)[n+]([O-])c2c1C(=O)NC21CCCCC1
A: 8.00 to 10.00

====

pIC50: −log10 of the molar value. Where a name gives a salt, the structure may show the parent alone.
Each entry below carries its measured pIC50, system: MNK2 (Homo sapiens (Human), UniProt Q9HBH9).
Sequence (Q9HBH9 whole entry): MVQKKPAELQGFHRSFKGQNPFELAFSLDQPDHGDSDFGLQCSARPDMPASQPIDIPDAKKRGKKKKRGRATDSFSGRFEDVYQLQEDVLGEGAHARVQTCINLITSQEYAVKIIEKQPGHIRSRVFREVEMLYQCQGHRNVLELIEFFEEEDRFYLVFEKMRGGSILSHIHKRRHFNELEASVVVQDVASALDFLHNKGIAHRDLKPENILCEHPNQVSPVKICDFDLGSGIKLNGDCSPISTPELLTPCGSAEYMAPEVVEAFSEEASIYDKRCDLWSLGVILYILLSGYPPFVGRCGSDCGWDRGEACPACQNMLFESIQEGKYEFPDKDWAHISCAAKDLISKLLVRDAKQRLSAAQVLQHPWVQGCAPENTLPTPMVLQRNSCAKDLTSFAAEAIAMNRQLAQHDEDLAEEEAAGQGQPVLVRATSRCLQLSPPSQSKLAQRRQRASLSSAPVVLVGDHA

For orientation, consider the following solved cases.
[
  {
    "Molecule": "CNc1cc(Nc2cc3c(s2)C(=O)NC32CCCCC2)ncn1",
    "pIC50": "7.00 to 8.00"
  },
  {
    "Molecule": "Cc1cc(Nc2cc(N[C@H]3CCCOC3)ncn2)[n+]([O-])c2c1C(=O)NC21CCCCC1",
    "pIC50": "7.00 to 8.00"
  },
  {
    "Molecule": "Cc1c(N)ncnc1Nc1cc2c(s1)C(=O)NC21CCCCC1",
    "pIC50": "7.00 to 8.00"
  },
  {
    "Molecule": "Cc1cc(Nc2cc(NC3CCCC3)ncn2)[n+]([O-])c2c1C(=O)NC21CCCCC1",
    "pIC50": "7.00 to 8.00"
  },
  {
    "Molecule": "Cc1cc(Nc2cc(Nc3ccc(N4CCN(CCO)CC4)cn3)ncn2)[n+]([O-])c2c1C(=O)NC21CCCCC1 [Compound XXIX-AAP, formate salt]",
    "pIC50": "8.00 to 10.00"
  },
  {
    "Molecule": "Cc1cc(Nc2cc(NC(=O)N(C)C)ncn2)[n+]([O-])c2c1C(=O)NC21CCCCC1",
    "pIC50": "7.00 to 8.00"
  },
  {
    "Molecule": "COc1c(NC(=O)C2CC2)ncnc1Nc1cc2c(s1)C(=O)NC21CCCCC1",
    "pIC50": "6.00 to 7.00"
  }
]

Q: Look up pIC50 with MNK2 (Homo sapiens (Human), UniProt Q9HBH9) for this molecule: O=C1NC2(CCCCC2)c2cc(Nc3cc(N4CCCC4)ncn3)sc21
A: < 6.00

====

Test system: MNK2 (Homo sapiens (Human))
pIC50: −log10 of the molar value. Where a name gives a salt, the structure may show the parent alone.
Property: pIC50

In the examples that follow, each entry is paired with its recorded pIC50.
[
  {
    "Compound": "O=C1NC2(CCCCC2)c2cc(Nc3ncnc4sc5c(c34)CCC(C(=O)N3CCC3)C5)sc21 (stereo not shown)",
    "pIC50": "7.00 to 8.00"
  },
  {
    "Compound": "Cn1ccc(Nc2cc(Nc3cc4c(s3)C(=O)NC43CCCCC3)ncn2)n1",
    "pIC50": "8.00 to 10.00"
  },
  {
    "Compound": "COC(=O)C1(Nc2cc(Nc3cc(C)c4c([n+]3[O-])C3(CCCCC3)NC4=O)ncn2)CCOC1 (stereo not shown)",
    "pIC50": "6.00 to 7.00"
  },
  {
    "Compound": "Cc1cc(Nc2cc(Nc3cccc(CO)n3)ncn2)[n+]([O-])c2c1C(=O)NC21CCCCC1 [Compound XXIX-AU, formate salt]",
    "pIC50": "8.00 to 10.00"
  },
  {
    "Compound": "Cc1cccnc1Nc1cc(Nc2cc(C)c3c([n+]2[O-])C2(CCCCC2)NC3=O)ncn1",
    "pIC50": "7.00 to 8.00"
  }
]

Q: Report pIC50 for Cc1cc(Nc2cc(Nc3ncn(C)n3)ncn2)[n+]([O-])c2c1C(=O)NC21CCCCC1 tested on MNK2 (Homo sapiens (Human)).
A: 8.00 to 10.00

Q: Write down the reported pIC50 of C[C@@H]1COCCN1C(=O)C1CCc2c(sc3ncnc(Nc4cc5c(s4)C(=O)NC54CCCCC4)c23)C1 (stereo partly shown) , test system: MNK2 (Homo sapiens (Human)).
A: 7.00 to 8.00

====

Here's what we have: pIC50 numbers for UniProt Q9HBH9.
pIC50: −log10 of the molar value.

[
  {
    "Sample smiles": "O=C(Nc1cc(Nc2cc3c(s2)C(=O)NC32CCCCC2)ncn1)c1ccccc1",
    "Property": "pIC50",
    "Result": "7.00 to 8.00"
  },
  {
    "Sample smiles": "Cn1ccc(Nc2cc(Nc3nc4c(s3)C(=O)NC43CCCCC3)ncn2)n1",
    "Property": "pIC50",
    "Result": "8.00 to 10.00"
  },
  {
    "Sample smiles": "Cn1cc(Nc2cc(Nc3cc4c(s3)C(=O)NC43CCCCC3)ncn2)cn1",
    "Property": "pIC50",
    "Result": "8.00 to 10.00"
  }
]

Q: Given O=C1NC2(CCCCC2)c2cc(Nc3cc(N[C@@H]4CCOC4)ncn3)sc21 , state its recorded pIC50.
A: 7.00 to 8.00

Q: Value lookup for pIC50; key = Cc1cc(Nc2ncnc3c2CCN3)[n+]([O-])c2c1C(=O)NC21CCCCC1
A: 7.00 to 8.00

Q: Would you kindly share the measured pIC50 for Nc1cc(Nc2c(=O)n3c(c4ccccc24)C(=O)NC32CCCCC2)ncn1 ?
A: < 6.00

Q: Quick one: pIC50 of CC(=O)N(C)c1cccc(Nc2cc(Nc3cc(C)c4c([n+]3[O-])C3(CCCCC3)NC4=O)ncn2)c1 ?
A: 7.00 to 8.00

Q: Can you look up the measured pIC50 of O=C1NC2(CCCCC2)c2cc(Nc3cc(NC4CCOCC4)ncn3)sc21 for me?
A: 6.00 to 7.00

====

System: TMD-8 cell p-IF4E
Assay procedure: p-eIF4E Signaling Cellular Assay (CisBio HTRF) in TMD-8 cells
Format: cell-based
Settings: Homo sapiens, TMD8, 40 min, 40 min treatment
pIC50: −log10 of the molar value.
Property: pIC50

[
  {
    "Sample smiles": "O=C1NC2(CCCCC2)c2cc(Nc3cc(NCCO)ncn3)sc21",
    "pIC50": "6.00 to 7.00"
  },
  {
    "Sample smiles": "CNC(=O)Nc1cc(Nc2cc3c(s2)C(=O)NC32CCCCC2)ncn1",
    "pIC50": "6.00 to 7.00"
  },
  {
    "Sample smiles": "O=C1NC2(CCCCC2)c2c1sc(Nc1cc(N[C@H]3CCOC3)ncn1)c2Cl",
    "pIC50": "7.00 to 8.00"
  }
]

Q: Looking for the measured pIC50 of O=C1NC2(CCCCC2)c2cc(Nc3cc(NCC4CCCC4)ncn3)sc21 , can you help?
A: 7.00 to 8.00

====

Observed IC50, system MNK2 (Homo sapiens (Human), UniProt Q9HBH9).

Example entries begin here.
[
  {
    "Compound": "O=C1NC2(CCCCC2)c2cc(Nc3cc(NC(=O)C4CC4)ncn3)sc21 [Compound XX-A]",
    "IC50": "10 to 100 nM"
  },
  {
    "Compound": "Nc1cc(Nc2c3c(c4n(c2=O)C2(CCCCC2)NC4=O)CCC3)ncn1 [Compound I]",
    "IC50": "> 1000 nM"
  },
  {
    "Compound": "O=C1NC2(CCCCC2)c2cc(Nc3cc(NC4CCCC4)ncn3)sc21 [Compound XXIII-N]",
    "IC50": "10 to 100 nM"
  },
  {
    "Compound": "Cc1cc(Nc2cc(N[C@H]3C[C@H](O)C3)ncn2)[n+]([O-])c2c1C(=O)NC21CCCCC1 [Compound XXIX-T]",
    "IC50": "10 to 100 nM"
  }
]

Q: // IC50 lookup, key: O=C1NC2(CCCCC2)c2cc(Nc3cc(Nc4ccncc4)ncn3)sc21 [Compound XXIII-O]
A: 10 to 100 nM

Q: Field request: IC50 | item: Cc1cc(Nc2cc(Nc3ccc(N4CCCCC4)cn3)ncn2)[n+]([O-])c2c1C(=O)NC21CCCCC1 [Compound XXIX-AAM]
A: 0.1 to 10 nM
